Provide the reported pIC50 of each item.
biological target: C-C chemokine receptor type 1 (Homo sapiens); experiment: Displacement of [125I]MIP-1alpha from CCR1 in human THP1 cells; type: cell-based, THP-1
The meaning of pIC50 here: minus log10 of the concentration in molar units.

Form field pIC50, entry CC(C)CC(NC(=O)c1ccccc1)C(=O)N1CCC(c2ccc(Cl)cc2)CC1 (stereo not drawn) : 6.89

Form field pIC50, entry CC[C@@H](NC(=O)CCc1ccccc1)C(=O)N1CCC(c2ccc(Cl)cc2)CC1 : 7.07

Form field pIC50, entry CC(O)C(NC(=O)c1ccccc1)C(=O)N1CCC(O)(c2ccc(Cl)cc2)CC1 (stereo not drawn) : 5.55

Form field pIC50, entry Cc1ccccc1C(=O)NC(C(=O)N1CCC(c2ccc(Cl)cc2)CC1)C(C)C (stereo not drawn) : 7.44

Form field pIC50, entry CCCC(NC(=O)c1ccccc1)C(=O)N1CCC(c2ccc(Cl)cc2)CC1 (racemic) : 6.92

Form field pIC50, entry Cc1cccc(CCC(=O)N[C@@H](C(=O)N2CCC(c3ccc(Cl)cc3)CC2)C(C)C)c1 : 7.66

Form field pIC50, entry C/C=C(/NC(=O)c1ccccc1)C(=O)N1CCC(O)(c2ccc(Cl)cc2)CC1 : 6.43

Form field pIC50, entry CC(C)[C@H](NC(=O)c1ccccc1)C(=O)N1CCC(c2ccc(Cl)cc2)CC1 : 4.83

Form field pIC50, entry CC[C@@H](NC(=O)Cc1ccccc1)C(=O)N1CCC(c2ccc(Cl)cc2)CC1 : 7.30

Form field pIC50, entry CC(C)[C@@H](NC(=O)CCCc1ccccc1)C(=O)N1CCC(c2ccc(Cl)cc2)CC1 : 7.02

Form field pIC50, entry CC[C@@H](C)[C@@H](NC(=O)CC(C)C)C(=O)N1CCC(c2ccc(Cl)cc2)CC1 : 7.47

Form field pIC50, entry CC(C)[C@@H](NC(=O)Cc1cccc(Cl)c1)C(=O)N1CCC(c2ccc(Cl)cc2)CC1 : 7.35

Form field pIC50, entry CC(C)[C@@H](NC(=O)CCc1ccc(F)cc1)C(=O)N1CCC(c2ccc(Cl)cc2)CC1 : 7.15

Form field pIC50, entry CC(C)C(NC(=O)c1ccc2ccccc2c1)C(=O)N1CCC(c2ccc(Cl)cc2)CC1 (stereo not drawn) : 7.10

Form field pIC50, entry CC(C)C(NC(=O)CCc1ccccc1)C(=O)N1CCC(c2ccc(Cl)cc2)CC1 (stereo not drawn) : 7.46

Form field pIC50, entry CCCC(NC(=O)c1ccccc1C)C(=O)N1CCC(c2ccc(Cl)cc2)CC1 (racemic) : 6.82

Form field pIC50, entry CC(C)[C@@H](NC(=O)Cc1ccc(Cl)cc1)C(=O)N1CCC(c2ccc(Cl)cc2)CC1 : 6.94

Form field pIC50, entry CC[C@@H](C)[C@@H](NC(=O)CCc1ccccc1)C(=O)N1CCC(c2ccc(Cl)cc2)CC1 : 7.18

Form field pIC50, entry CC[C@@H](C)[C@@H](NC(=O)Cc1ccccc1)C(=O)N1CCC(c2ccc(Cl)cc2)CC1 : 7.42

Form field pIC50, entry CC(C)[C@@H](NC(=O)c1cccc(F)c1)C(=O)N1CCC(c2ccc(Cl)cc2)CC1 : 7.62

Form field pIC50, entry CC(C)[C@@H](NC(=O)C1CCCC1)C(=O)N1CCC(c2ccc(Cl)cc2)CC1 : 7.15

Form field pIC50, entry CC(C)C(NC(=O)Cc1ccccc1)C(=O)N1CCC(c2ccc(Cl)cc2)CC1 (stereo not drawn) : 7.40

Form field pIC50, entry CC(C)[C@@H](NC(=O)CC1CC1)C(=O)N1CCC(c2ccc(Cl)cc2)CC1 : 7.34

Form field pIC50, entry CC(C)[C@@H](NC(=O)Cc1cccc(F)c1)C(=O)N1CCC(c2ccc(Cl)cc2)CC1 : 7.36

Form field pIC50, entry CC[C@@H](NC(=O)CC(C)C)C(=O)N1CCC(c2ccc(Cl)cc2)CC1 : 6.82

Form field pIC50, entry Cc1ccc(CC(=O)N[C@@H](C(=O)N2CCC(c3ccc(Cl)cc3)CC2)C(C)C)cc1 : 6.85

Form field pIC50, entry CC(C)CC(=O)N[C@@H](C(=O)N1CCC(c2ccc(Cl)cc2)CC1)C(C)C : 7.49

Form field pIC50, entry CC(C)[C@@H](NC(=O)c1ccccc1)C(=O)N1CCC(c2ccc(Cl)cc2)CC1 : 7.55

Form field pIC50, entry CCCC(NC(=O)c1ccccc1)C(=O)N1CCC(O)(c2ccc(Cl)cc2)CC1 (stereo not drawn) : 6.28

Form field pIC50, entry CC[C@@H](NC(=O)c1ccccc1)C(=O)N1CCC(c2ccc(Cl)cc2)CC1 : 6.92

Form field pIC50, entry CC(C)[C@@H](NC(=O)CCc1ccccc1)C(=O)N1CCC(c2ccc(Cl)cc2)CC1 : 7.40

Form field pIC50, entry CC(C)[C@@H](NC(=O)NCc1ccccc1)C(=O)N1CCC(c2ccc(Cl)cc2)CC1 : 6.74

Form field pIC50, entry Cc1ccccc1C(=O)N[C@@H](C(=O)N1CCC(c2ccc(Cl)cc2)CC1)C(C)C : 7.49

Form field pIC50, entry CC(C)[C@@H](NC(=O)NCCc1ccccc1)C(=O)N1CCC(c2ccc(Cl)cc2)CC1 : 6.27

Form field pIC50, entry CC(C)[C@@H](NC(=O)CC1CCCCC1)C(=O)N1CCC(c2ccc(Cl)cc2)CC1 : 8.10

Form field pIC50, entry CC(C)CCC(=O)N[C@@H](C(=O)N1CCC(c2ccc(Cl)cc2)CC1)C(C)C : 7.59

Form field pIC50, entry CC(C)[C@@H](NC(=O)CC1CCCC1)C(=O)N1CCC(c2ccc(Cl)cc2)CC1 : 7.70

Form field pIC50, entry CCCC(NC(=O)c1ccc2ccccc2c1)C(=O)N1CCC(c2ccc(Cl)cc2)CC1 (racemic) : 6.72

---

biological target: C-C chemokine receptor type 1 (Homo sapiens); assay: Displacement of [125I]MIP-1alpha from CCR1 in human THP1 cells; assay type: cell-based, THP-1
Provide the reported pIC50 of each item.
The meaning of pIC50 here: minus log10 of the concentration in molar units.

Form field pIC50, entry Cc1cccc(C)c1C(=O)N[C@@H](C(=O)N1CCC(c2ccc(Cl)cc2)CC1)C(C)C : 6.75

Form field pIC50, entry CC(C)[C@@H](NC(=O)Cc1ccccc1)C(=O)N1CCC(c2ccc(Cl)cc2)CC1 : 7.52

Form field pIC50, entry Cc1ccc(CCC(=O)N[C@@H](C(=O)N2CCC(c3ccc(Cl)cc3)CC2)C(C)C)cc1 : 6.98

Form field pIC50, entry CC(C)C(NC(=O)c1ccccc1)C(=O)N1CCN(c2ccc(Cl)c(Cl)c2)CC1 (centres undefined) : 6.43

Form field pIC50, entry CSCCC(NC(=O)c1ccccc1)C(=O)N1CCC(O)(c2ccc(Cl)cc2)CC1 (centres undefined) : 6.27

Form field pIC50, entry CC(C)[C@@H](NC(=O)c1ccc(F)cc1)C(=O)N1CCC(c2ccc(Cl)cc2)CC1 : 6.93

Form field pIC50, entry CC(C)[C@@H](NC(=O)c1ccc(F)c(F)c1)C(=O)N1CCC(c2ccc(Cl)cc2)CC1 : 7.85

Form field pIC50, entry CC(C)[C@@H](NC(=O)Cc1ccccc1F)C(=O)N1CCC(c2ccc(Cl)cc2)CC1 : 7.89

Form field pIC50, entry CC(C)C(NC(=O)c1ccccc1)C(=O)N1CCC(O)(c2ccc(Cl)cc2)CC1 (centres undefined) : 6.74

---

molecular target: Cytochrome P450 3A4 (Homo sapiens); assay: Inhibition of recombinant CYP3A4 expressed in baculovirus-infected insect cells using fluorogeinc substrate
Sequence (P08684 whole entry): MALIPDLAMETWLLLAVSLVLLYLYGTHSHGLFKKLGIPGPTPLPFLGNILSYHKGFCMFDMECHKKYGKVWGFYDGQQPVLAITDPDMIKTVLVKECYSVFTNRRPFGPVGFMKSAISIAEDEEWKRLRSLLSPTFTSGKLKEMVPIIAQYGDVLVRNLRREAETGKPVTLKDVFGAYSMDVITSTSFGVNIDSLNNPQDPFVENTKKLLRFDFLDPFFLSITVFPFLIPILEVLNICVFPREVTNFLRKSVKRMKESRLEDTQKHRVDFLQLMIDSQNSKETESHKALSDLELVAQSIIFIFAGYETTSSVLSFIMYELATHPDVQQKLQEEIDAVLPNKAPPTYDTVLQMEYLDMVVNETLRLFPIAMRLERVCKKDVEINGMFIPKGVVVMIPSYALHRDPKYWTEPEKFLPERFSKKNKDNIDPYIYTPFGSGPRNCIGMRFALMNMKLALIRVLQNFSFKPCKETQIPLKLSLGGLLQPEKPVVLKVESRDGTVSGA
Measurement type: IC50

// IC50 (Cytochrome P450 3A4 (Homo sapiens)) for CC(C)[C@@H](NC(=O)c1ccccc1)C(=O)N1CCC(c2ccc(Cl)cc2)CC1 = > 40 µM

---

experiment: Oral bioavailability life in mouse at 5.2 mg/kg; format: ADME, organism-based; settings: in vivo
Measurement type: bioavailability (%)
# value in %; strip the unit string

Form field bioavailability, entry CC(C)[C@@H](NC(=O)c1ccccc1)C(=O)N1CCC(c2ccc(Cl)cc2)CC1 : 52

---

Target: C-C chemokine receptor type 1 (Homo sapiens)
Sequence (P32246 whole entry): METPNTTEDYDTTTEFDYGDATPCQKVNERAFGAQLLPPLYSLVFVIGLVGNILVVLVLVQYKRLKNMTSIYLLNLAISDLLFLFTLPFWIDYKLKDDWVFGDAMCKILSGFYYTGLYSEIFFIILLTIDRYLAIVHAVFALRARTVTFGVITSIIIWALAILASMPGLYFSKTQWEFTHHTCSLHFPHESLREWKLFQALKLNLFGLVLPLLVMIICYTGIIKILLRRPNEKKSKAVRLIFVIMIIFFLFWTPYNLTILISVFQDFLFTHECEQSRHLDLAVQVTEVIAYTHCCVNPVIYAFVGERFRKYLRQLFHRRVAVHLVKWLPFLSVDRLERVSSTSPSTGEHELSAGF
Assay: Displacement of [125I]MIP-1alpha from CCR1 in human THP1 cells
Assay type: cell-based, THP-1
// assign MET if IC50 falls strictly below 300 nM, else NOT MET (ties count as NOT MET)

Does the reported IC50 of CC(C)C(NC(=O)c1ccccc1)C(=O)N1CCC(c2ccc(Cl)cc2)CC1 (stereo not given) stay below 300 nM? MET

Does the reported IC50 of Cc1ccccc1C(=O)NC(CC(C)C)C(=O)N1CCC(c2ccc(Cl)cc2)CC1 (stereo not given) stay below 300 nM? MET

Does the reported IC50 of CC(C)C(NC(=O)c1ccccc1)C(=O)N1CCN(c2ccc(Cl)cc2)CC1 (stereo not given) stay below 300 nM? NOT MET

Does the reported IC50 of Cc1cccc(C(=O)N[C@@H](C(=O)N2CCC(c3ccc(Cl)cc3)CC2)C(C)C)c1C stay below 300 nM? MET

Does the reported IC50 of CC(C)C(NC(=O)c1ccccc1)C(=O)N1CCC(c2ccc(F)cc2)CC1 (stereo not given) stay below 300 nM? NOT MET

Does the reported IC50 of CC(C)C(NC(=O)c1ccccc1)C(=O)N1CCC(O)(c2ccc(Br)cc2)CC1 (stereo not given) stay below 300 nM? MET

Does the reported IC50 of CC(C)(C)C(NC(=O)c1ccccc1)C(=O)N1CCC(c2ccc(Cl)cc2)CC1 (stereo not given) stay below 300 nM? MET

Does the reported IC50 of CC(C)CC(NC(=O)c1ccccc1)C(=O)N1CCC(O)(c2ccc(Cl)cc2)CC1 (stereo not given) stay below 300 nM? NOT MET

Does the reported IC50 of CC(C)[C@@H](NC(=O)Nc1ccccc1)C(=O)N1CCC(c2ccc(Cl)cc2)CC1 stay below 300 nM? NOT MET

Does the reported IC50 of CC(C)[C@@H](NC(=O)CCc1ccccc1F)C(=O)N1CCC(c2ccc(Cl)cc2)CC1 stay below 300 nM? MET

Does the reported IC50 of CC(C)[C@@H](NC(=O)c1cc2ccccc2s1)C(=O)N1CCC(c2ccc(Cl)cc2)CC1 stay below 300 nM? MET

Does the reported IC50 of Cc1ccccc1CCC(=O)N[C@@H](C(=O)N1CCC(c2ccc(Cl)cc2)CC1)C(C)C stay below 300 nM? MET

Does the reported IC50 of CC(C)C(NC(=O)Oc1ccccc1)C(=O)N1CCC(c2ccc(Cl)cc2)CC1 (stereo not given) stay below 300 nM? MET

Does the reported IC50 of Cc1ccc(C(=O)N[C@@H](C(=O)N2CCC(c3ccc(Cl)cc3)CC2)C(C)C)cc1 stay below 300 nM? MET

Does the reported IC50 of CC(C)C(NC(=O)OCc1ccccc1)C(=O)N1CCC(c2ccc(Cl)cc2)CC1 (stereo not given) stay below 300 nM? NOT MET

Does the reported IC50 of CC(C)C(NC(=O)c1ccccc1)C(=O)N1CCC(O)(c2ccc(F)cc2)CC1 (stereo not given) stay below 300 nM? NOT MET

Does the reported IC50 of CC(C)C(NC(=O)c1ccccc1)C(=O)N1CC=C(c2ccc(Cl)cc2)CC1 (stereo not given) stay below 300 nM? MET

Does the reported IC50 of CC(C)[C@@H](NC(=O)c1nc2ccccc2s1)C(=O)N1CCC(c2ccc(Cl)cc2)CC1 stay below 300 nM? MET

Does the reported IC50 of CC[C@@H](C)[C@@H](NC(=O)c1ccccc1)C(=O)N1CCC(c2ccc(Cl)cc2)CC1 stay below 300 nM? MET
